# measurement target: human recombinant CYP1A1 (Homo sapiens)
# Sequence (P04798 1-512): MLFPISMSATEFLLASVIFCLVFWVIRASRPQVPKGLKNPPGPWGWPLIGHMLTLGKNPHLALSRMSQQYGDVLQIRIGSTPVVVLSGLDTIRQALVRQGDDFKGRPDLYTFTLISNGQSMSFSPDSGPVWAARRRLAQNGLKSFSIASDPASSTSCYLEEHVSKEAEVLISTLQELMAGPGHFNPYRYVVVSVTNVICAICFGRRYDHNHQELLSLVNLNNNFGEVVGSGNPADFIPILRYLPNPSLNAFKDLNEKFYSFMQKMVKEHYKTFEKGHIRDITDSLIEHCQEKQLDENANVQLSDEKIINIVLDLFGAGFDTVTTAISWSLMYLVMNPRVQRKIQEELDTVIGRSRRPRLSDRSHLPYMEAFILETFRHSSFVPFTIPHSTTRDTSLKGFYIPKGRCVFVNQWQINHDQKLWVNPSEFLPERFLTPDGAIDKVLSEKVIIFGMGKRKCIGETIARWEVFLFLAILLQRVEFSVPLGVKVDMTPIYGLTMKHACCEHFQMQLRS
# method summary: EROD activity of microsomes containing human recombinant CYP1A1
# Format: biochemical
# condition context: read-out: IC50, inhibition of CYP1A1-mediated EROD activity, human recombinant CYP1A1 2.5 nM, 7-ethoxyresorufin 0.5 μM, NADPH 0.4 mM, 5 min pre-incubation
readout kind: IC50 (nM)
Expressed in nM, but write only the number.

Qu. Answer with the recorded IC50 for the compound listed here: O=C1c2ccccc2-c2ccc3ccccc3c21 [BFLO, benzo[a]fluorenone]
Ans. 61
